- Tested on: HS 578T breast
- assay_name: NCI tumour cell line growth inhibition, 48 h
reported_endpoint: TGI (µM)
Your answer should be a plain number; it is taken to be in µM.

[[record]]
compound = "CCCNC(=O)CCC(C)C1CCC2C3C(C[C@H](OC(C)=O)[C@]12C)[C@@]1(C)CCC2(C[C@H]1C[C@H]3OC(C)=O)OOC1(CC[C@]3(C)C4C[C@H](OC(C)=O)[C@]5(C)C(C(C)CCC(=O)NCCC)CCC5C4[C@H](OC(C)=O)C[C@@H]3C1)OO2 (some centres undefined)"
reported_endpoint = "TGI"
recorded_result = 98.2

[[record]]
compound = "CC1OC(n2c3ccccc3c3c4c(c5c6ccccc6[nH]c5c32)C(=O)N(CCN[C@@H]2CCC[C@H]2N)C4=O)CC(O)C1O (some centres undefined)"
reported_endpoint = "TGI"
recorded_result = 9.73

[[record]]
compound = "CCn1cnc(C[C@H](NC(=O)[C@@H](NC(=O)Nc2cc(C(F)(F)F)cc(C(F)(F)F)c2)C(C)C)C(=O)OC)c1"
reported_endpoint = "TGI"
recorded_result = 6.11


State its TGI: `CCOC(=O)c1cc2c(n1Cc1cccc(OC)c1)-c1oncc1CCC2`
24.8

State its TGI: `COc1ccc(C(=O)c2sc(Nc3ccc(Cl)cc3)nc2N)cc1`
47.4

---

- Tested on: K-562 leukemia
- assay_name: NCI tumour cell line growth inhibition, 48 h; in the data active = GI50 below about 0.43 µM; inactive = the rest
Use one of these outcomes when replying: active, inactive

A selection of reference data follows.
[[record]]
molecule = "CCn1cnc(C[C@H](NC(=O)[C@@H](NC(=O)Nc2cc(C(F)(F)F)cc(C(F)(F)F)c2)C(C)C)C(=O)OC)c1"
assayed_system = "K-562 leukemia"
assigned_label = "inactive"

[[record]]
molecule = "O=C1C(N2CC2)=C(N2CC2)C(=O)C(N2CC2)=C1N1CC1"
assayed_system = "K-562 leukemia"
assigned_label = "inactive"

[[record]]
molecule = "C1COCCN1.C1COCCN1.NC1CCCCC1N.[Cl-].[Pt+2] (configuration not stated)"
assayed_system = "K-562 leukemia"
assigned_label = "inactive"

[[record]]
molecule = "COC(=O)[C@@]12OC[C@]34[C@H]([C@@H](O)[C@@H]1O)[C@@]1(C)[C@H](O)C(=O)C=C(C)[C@@H]1C[C@H]3OC(=O)C(OC(C)=O)[C@@H]24 (some centres not stated)"
assayed_system = "K-562 leukemia"
assigned_label = "active"

[[record]]
molecule = "Cc1ccc(C(CC(=O)c2ccccc2)C2C(=O)NC(=O)NC2=O)cc1 (configuration not stated)"
assayed_system = "K-562 leukemia"
assigned_label = "inactive"

[[record]]
molecule = "O=C(Cn1c(=O)c(-c2ccccc2)nc2ccccc21)Nc1ccc(F)cc1"
assayed_system = "K-562 leukemia"
assigned_label = "inactive"


Now look at this one.
Lab log entry: `O=c1cc(-c2ccccc2F)[nH]c2ccc(N3CCCC3)cc12` — outcome as called in the assay?
active

---

- System: SK-MEL-28 melanoma
- assay_name: NCI tumour cell line growth inhibition, 48 h; in the data active = GI50 below about 0.43 µM; inactive = the rest
Use one of these outcomes when replying: active, inactive

[[record]]
compound = "O=C(Nc1ccncc1)C(=O)c1cn(Cc2ccc(Cl)cc2)c2ccccc12"
assigned_label = "active"


Lab log entry: `COc1cc2c3c(n(CCCCN)c(=O)c2cc1OC)-c1cc2c(cc1C3=O)OCO2` — outcome as called in the assay?
inactive

Lab log entry: COc1cccc2c1C(=O)c1c(O)c3c(c(O)c1C2=O)CC(O)(C(O)CO)CC3OC1CC(N2CCOCC2)C(O)C(C)O1 (stereo not given) — outcome as called in the assay?
active

Lab log entry: `NC(=O)c1ccccc1Nc1ccc2nnc(-c3ccncc3)n2n1` — outcome as called in the assay?
inactive

Lab log entry: `COc1cccc2c1ccc1nc3cccc(C(=O)N[C@H](C)CN(C)C)c3nc12` — outcome as called in the assay?
active

---

The entries below are paired with their reported TGI.
- Test system: UACC-62 melanoma
- assay_name: NCI tumour cell line growth inhibition, 48 h
Your answer should be a plain number; it is taken to be in µM.

[[record]]
compound = "C[C@]12CCc3sc(NCCc4ccccc4)nc3C1=CC[C@@H]1[C@@H]2CC[C@]2(C)C(=O)CC[C@@H]12"
assayed_system = "UACC-62 melanoma"
recorded_result = 10.6


State its TGI: CCC(C)C1=C(OC(C)=O)[N+]2([O-])Oc3ccc(-c4c(OC(C)=O)c(OC(C)=O)c(-c5ccc(OC(C)=O)cc5)c(OC(C)=O)c4OC(C)=O)cc3OC2(C(C)CC)C(=O)N1OC(C)=O (stereo not drawn)
16.7

---

- Tested on: OVCAR-3 ovarian
- assay_name: NCI tumour cell line growth inhibition, 48 h
reported_endpoint: TGI

Consider the worked cases shown below.
[[record]]
compound = "CN1CNc2nc(N)n(C)c(=O)c2C1"
recorded_result = "> 10 µM"

[[record]]
compound = "CC(=O)OCC1OC(OC2CC3C(C)(C)C(OC(C)=O)CC[C@]3(C)C3CCC45CC4(CCC5[C@@H](C)C[C@H](O)C(O)C(C)(C)O)[C@]23C)C(O)C(O)C1O (stereo partly drawn)"
recorded_result = "> 10 µM"

[[record]]
compound = "S=C1N(/N=C/c2c3ccccc3cc3ccccc23)C(=Nc2ccccc2)C(=Nc2ccccc2)N1c1ccccc1"
recorded_result = "> 100 µM"


State its TGI: `Nc1ccc2c(SCc3ccc([N+](=O)[O-])cc3)c3ccccc3nc2c1`
30.2 µM

State its TGI: `COc1cccc(-n2nc(C)c3c(N/N=C(\C)c4ccncc4)ncnc32)c1`
> 25 µM

State its TGI: `Cn1c2ccc3cc2c(=S)c2cc(ccc21)OCCOCCOCCOCCOCCO3`
> 10 µM

State its TGI: COC1/C=C/C(C)C(C(C)C(OC)C(C)CCC(=O)C(C)C(C/C=C/N(C)C=O)OC)OC(=O)/C=C/C=C(\C)CC(OC)CC2=CC(=O)O[C@H](C2)C(C)C(OC)CC(OC)/C=C/C(C)C(OC)C1 (stereo partly drawn)
0.0307 µM

State its TGI: `COc1cccc2c1Cc1cc(-c3ccccc3)[n+](C)n1-2`
> 100 µM

---

- Tested on: OVCAR-5 ovarian
- assay_name: NCI tumour cell line growth inhibition, 48 h
The entries below are paired with their reported TGI.

[[record]]
molecule = "NC(=O)c1cc2ccc(O)cc2oc1=Nc1ccccc1"
assayed_system = "OVCAR-5 ovarian"
recorded_result = "> 100 µM"

[[record]]
molecule = "Clc1cc(Cl)cc(C=NC23CC4CC(CC(C4)C2)C3)c1"
assayed_system = "OVCAR-5 ovarian"
recorded_result = "> 10 µM"

[[record]]
molecule = "O=c1oc(Cl)c(Cl)c2ccccc12"
assayed_system = "OVCAR-5 ovarian"
recorded_result = "57.1 µM"

[[record]]
molecule = "O=C(/C=C/c1ccccc1)NNC(=O)c1c(Cl)c(Cl)c(Cl)c(Cl)c1-c1nc2ccccc2[nH]1"
assayed_system = "OVCAR-5 ovarian"
recorded_result = "> 100 µM"

[[record]]
molecule = "CC(=O)C1=C(C)N(c2ccc(C)cc2)C2(O)C=CC(=O)C3C(=O)N(c4ccccc4)C(=O)C132 (configuration not stated)"
assayed_system = "OVCAR-5 ovarian"
recorded_result = "> 100 µM"

[[record]]
molecule = "CN1CCN(c2ncc3c(n2)sc2c(=O)n(-c4ccccc4)cnc23)CC1"
assayed_system = "OVCAR-5 ovarian"
recorded_result = "> 100 µM"


Would you kindly look at the next entry?
State its TGI: O=C(OCN1C(=O)C2C3C=CC(C2C1=O)C1C2C(=O)N(COC(=O)C4CCCN4)C(=O)C2C31)C1CCCN1 (configuration not stated)
> 100 µM

---

- System: MCF7 breast
- assay_name: NCI tumour cell line growth inhibition, 48 h; in the data active means GI50 below about 0.43 µM; inactive means the rest
Use one of these outcomes when replying: active, inactive

A selection of reference data follows.
[[record]]
molecule = "CCOC(=O)c1cc2c(n1Cc1cccc(OC)c1)-c1oncc1CCC2"
assigned_label = "active"

[[record]]
molecule = "NC(=O)c1ccc(I)c(N=O)c1"
assigned_label = "inactive"

[[record]]
molecule = "O=C(Nc1cccc(-n2cc(-c3ccncc3)c(-c3cc(O)cc(Cl)c3)n2)c1)Nc1ccc(Cl)c(C(F)(F)F)c1"
assigned_label = "inactive"


Lab log entry: CC1OC(n2c3ccccc3c3c4c(c5c6ccccc6[nH]c5c32)C(=O)N(CCN[C@@H]2CCC[C@H]2N)C4=O)CC(O)C1O (stereo partly specified) — outcome as called in the assay?
inactive

Lab log entry: `COc1ccc(C(=O)/C=C/c2cccc([N+](=O)[O-])c2)c(OC)c1` — outcome as called in the assay?
inactive

Lab log entry: `O=S(=O)(Nc1ccc(Br)c(Cl)c1)c1ccc(-c2cnc(C3CC3)o2)cc1` — outcome as called in the assay?
active

---

The entries below are paired with their reported TGI.
- Test system: CCRF-CEM leukemia
- assay_name: NCI tumour cell line growth inhibition, 48 h

Consider the worked cases shown below.
[[record]]
compound = "CC(=O)O[C@H]1[C@@H]2OC(=O)[C@@](O)(CC3CCCO3)[C@@H]2CC(=O)[C@](C)(O)CC/C=C(\\C)CCC[C@@H]1C (some centres undefined)"
reported_endpoint = "TGI"
recorded_result = "68.4 µM"

[[record]]
compound = "N.N.N.N.N.[Cl-].[Co+3].c1ccc(-c2nn[n-]n2)cc1"
reported_endpoint = "TGI"
recorded_result = "> 100 µM"

[[record]]
compound = "C=CCNC(=O)N(CCCC(NC(C)=O)C(=O)NCc1ccccc1)Cc1ccccc1 (centres undefined)"
reported_endpoint = "TGI"
recorded_result = "> 100 µM"

[[record]]
compound = "Cc1cc2c(C)nn(Cc3ccccc3)c2c(C(N)=O)c1C"
reported_endpoint = "TGI"
recorded_result = "> 100 µM"


Report its TGI with CCRF-CEM leukemia as the test system: `CCOC(=O)c1cc2c(n1Cc1cccc(OC)c1)-c1oncc1CCC2`
> 100 µM

Report its TGI with CCRF-CEM leukemia as the test system: COC1OC(CBr)C(OC(=O)c2ccccc2)C(O)C1Br (centres undefined)
> 100 µM

Report its TGI with CCRF-CEM leukemia as the test system: `O=C1c2cccc(NCCN=Cc3cc([N+](=O)[O-])ccc3O)c2C(=O)c2c(NCCN=Cc3cc([N+](=O)[O-])ccc3O)cccc21`
9.89 µM

Report its TGI with CCRF-CEM leukemia as the test system: CC1OC(n2c3ccccc3c3c4c(c5c6ccccc6[nH]c5c32)C(=O)N(CCN[C@@H]2CCC[C@H]2N)C4=O)CC(O)C1O (some centres undefined)
6.27 µM

Report its TGI with CCRF-CEM leukemia as the test system: `CNCCCn1c2c(c3ccc([N+](=O)[O-])cc3c1=O)C(=O)c1cc(OC)cnc1-2`
0.625 µM

Report its TGI with CCRF-CEM leukemia as the test system: C[C@]12CCC(=O)C=C1CC[C@@H]1C2CC[C@]2(C)Nc3c(cnn3-c3ccccc3)CC12 (some centres undefined)
> 100 µM

Report its TGI with CCRF-CEM leukemia as the test system: Cc1cn(C2CC(O)C(COC(=O)NCCC(F)(F)C(F)(F)C(F)(F)C(F)(F)F)O2)c(=O)[nH]c1=O (centres undefined)
> 100 µM

Report its TGI with CCRF-CEM leukemia as the test system: `CN(C)CCCNc1ccc([N+](=O)[O-])c2nc3ccccc3c(N)c12`
2.99 µM

Report its TGI with CCRF-CEM leukemia as the test system: Cc1oc2c(C)c3oc(=O)cc(C)c3cc2c1CN1C(=O)C2OCCOCCOCCOCCOCCO[C@H]2C1=O (some centres undefined)
> 100 µM

Report its TGI with CCRF-CEM leukemia as the test system: `CNC(=O)c1cccc2cc(Oc3ccnc4cc(OCC5(N)CC5)c(OC)cc34)ccc12`
29.7 µM

Report its TGI with CCRF-CEM leukemia as the test system: `CNc1ccc2c(c1)[C@@]1(C)c3ccccc3[C@@H](C2)N1C`
52.7 µM

Report its TGI with CCRF-CEM leukemia as the test system: `Cc1cc2c(cc1Cl)S(=O)(=O)OC(c1ccc([N+](=O)[O-])cc1)=N2`
> 100 µM

Report its TGI with CCRF-CEM leukemia as the test system: `O=C(O)c1cc2ccc3ccccc3c2oc1=O`
> 100 µM

Report its TGI with CCRF-CEM leukemia as the test system: `O=c1[nH]nc(NNc2ccccc2)c2nnn(C3CCCCC3)c12`
> 100 µM

Report its TGI with CCRF-CEM leukemia as the test system: O=C1CSC(c2ccc([N+](=O)[O-])cc2)N1c1ccc(-n2c(-c3ccccc3)nc3ccccc3c2=O)cc1 (centres undefined)
> 100 µM
